Target: T1, Human soluble IL-6R (human, UniProt P08887 20-358)
T1 construct: Soluble recombinant form; biotinylated in some assays; also called hIL-6R; human IL-6R
T1 sequence (looked up): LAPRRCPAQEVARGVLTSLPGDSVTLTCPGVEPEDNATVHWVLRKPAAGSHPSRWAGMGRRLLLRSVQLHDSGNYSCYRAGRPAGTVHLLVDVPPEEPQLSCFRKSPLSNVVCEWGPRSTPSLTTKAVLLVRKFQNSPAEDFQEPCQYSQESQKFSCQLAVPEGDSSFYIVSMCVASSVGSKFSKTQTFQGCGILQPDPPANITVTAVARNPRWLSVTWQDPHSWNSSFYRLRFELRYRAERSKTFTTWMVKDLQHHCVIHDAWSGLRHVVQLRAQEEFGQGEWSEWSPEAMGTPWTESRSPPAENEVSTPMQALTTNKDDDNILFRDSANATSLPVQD
Assay: Alphascreen, inhibition of bio-IL-6 binding to IL-6R
Below, each of the binders is paired with its reported fold difference of IC50 to IL6R03 value.

Known results for binders:
IL6R64 (VHH) VHH: EVQLVESGGGLVQPGGSLRLSCAASGSIFKVNAMGWYRQAPGKGRELVAGIISGGSTNYADSVKGRLTISRDNAKNTVYLQMNSLRPEDTAVYYCAFVTTNSDYDLGRDYWGQGTLVTVSS: ≤ 2 fold
IL6R63 (VHH) VHH: EVQLVESGGGLVQPGGSLRLSCAASGSIFKVNAMGWYRQAPGKGRELVAGIISGGSTNYADSVKGRLTISRDNAKNTLYLQMNSLRPEDTAVYYCSFVTTNSDYDLGRDYWGQGTLVTVSS: ~4 fold
IL6R62 (VHH) VHH: EVQLVESGGGLVQPGGSLRLSCAASGSIFKVNAMGWYRQAPGKGRELVAGIISGGSTNYADSVKGRFTISRDNAKNTVYLQMNSLRPEDTAVYYCSFVTTNSDYDLGRDYWGQGTLVTVSS: ≤ 2 fold

-- ask Fill in the blank: the reported fold difference of IC50 to IL6R03 of IL6R61 (VHH) VHH: EVQLVESGGGLVQPGGSLRLSCAASGSIFKVNAMGWYRQAPGKGRELVAGIISGGSTNYADSVKGRLTISRDNAKNTVYLQMNSLRPEDTAVYYCSFVTTNSDYDLGRDYWGQGTLVTVSS is ____.
-- reply ≤ 2 fold
